Target: human PCSK9 (Homo sapiens)
Experiment: PCSK9 ligand binding TR-FRET assay (interference with binding of human PCSK9 to human LDLR)
Conditions: PCSK9 FRET assay, efficacy (Amax); 100% = 1 uM unlabeled human PCSK9, 0% = DMSO
Method: The PCSK9 binding of the compounds of the disclosure were measured using a time resolved fluorescence resonance energy transfer (TR-FRET) assay. This time resolved fluorescence resonance energy transfer (TR-FRET) assay measures the ability of a compound of the present disclosure to interfere with the binding of human PCSK9 to human LDLR, providing measures of both potency (IC50) and efficacy (Amax). […] Data is expressed as percent inhibition: (value−0%)/(100%−0%).
Each entry below carries its recorded Max % inhibition.
# unit: % | format: bare number

Example entries begin here.
COC[C@@H]1NC(=O)[C@H](C)N(Cc2ncccc2Oc2ccc(-c3cnc(CN(C)C)n3C)cc2)C(=O)C[C@@H](Cc2ccccc2)C(=O)N(C)[C@@H](C)CNC(=O)C[C@H](Cc2ccc(Cl)cc2)N(C)C1=O :: 97.43
COC[C@@H]1NC(=O)[C@H](C)N(Cc2ccc(F)cc2Oc2ccc(-c3cnc(CN(C)C)n3C)cc2)C(=O)C[C@@H](Cc2ccccc2)C(=O)N(C)[C@@H](C)CNC(=O)C[C@H](Cc2ccc(Cl)cc2)N(C)C1=O :: 100.29
COC[C@@H]1NC(=O)[C@H](C)N(Cc2ccc(Cl)cc2Oc2ccc(-c3cnc(CN(C)C)n3C)cc2)C(=O)CCC(=O)N(C)[C@@H](C)CNC(=O)C[C@H](Cc2ccc(Cl)cc2)N(C)C1=O :: 100.43
C[C@H]1CNC(=O)C[C@H](Cc2ccc(Cl)cc2)N(C)C(=O)[C@H](CCF)NC(=O)[C@H](C)N(Cc2ccc(Cl)cc2Oc2ccc(-c3cnc(CN4CCCC4)n3C)cc2)C(=O)C[C@@H](Cc2ccccc2)C(=O)N1C :: 50.23
COC[C@@H]1NC(=O)[C@H](C)N(Cc2ccc(Cl)cc2Oc2ccc(-c3cnc(CN4CCCC4)n3C)c(F)c2)C(=O)C[C@@H](Cc2ccccc2)C(=O)N(C)[C@@H](C)CNC(=O)C[C@H](Cc2ccc(Cl)cc2)N(C)C1=O :: 92.57
COC[C@@H]1NC(=O)[C@H](C)N(Cc2ccc(Cl)cc2Oc2ccc(-c3cnc([C@@H](C)N(C)C)n3C)cc2)C(=O)C[C@@H](Cc2ccccc2)C(=O)N(C)[C@@H](C)[C@H](C)NC(=O)C[C@H](Cc2ccc(Cl)cc2)N(C)C1=O :: 111.41
COC[C@@H]1NC(=O)[C@H](C)N(Cc2ccc(Cl)cc2Oc2ccc(-c3cnc(CN(C)C)n3C)cc2)C(=O)C[C@@H](Cc2ccccc2)C(=O)N(C)[C@H]2C[C@H]2NC(=O)C[C@H](Cc2ccc(Cl)cc2)N(C)C1=O :: 98.86
CCCC#Cc1ncc(-c2ccc(Oc3cc(Cl)ccc3CN3C(=O)C[C@@H](Cc4ccccc4)C(=O)N(C)[C@@H](C)CNC(=O)C[C@H](Cc4ccc(Cl)cc4)N(C)C(=O)[C@H](COC)NC(=O)[C@@H]3C)cc2)n1C :: 85.21

Here is another molecule to look at.
Checklist item: Max % inhibition tested on human PCSK9 (Homo sapiens), entry CC[C@H](c1ncc(-c2ccc(Oc3cc(Cl)ccc3CN3C(=O)C[C@@H](Cc4ccccc4)C(=O)N(C)[C@H]4CCCC[C@@H]4NC(=O)C[C@H](Cc4ccc(Cl)cc4)N(C)C(=O)[C@H](COC)NC(=O)[C@@H]3C)cc2)n1C)N(C)C , value? 68.37

###

molecular target: human PCSK9 (Homo sapiens); assay: PCSK9 ligand binding TR-FRET assay (interference with binding of human PCSK9 to human LDLR); conditions: TR-FRET; human PCSK9 Alexa Fluor 647 / human LDLR extracellular domain-Europium Kryptate; read-out: PCSK9 FRET Assay IC50
READOUT_LABEL: IC50 (nM)
Quick note: give the figure in nM, leave out the unit.

Entry under review: CCC(CC)[C@@H]1CC(=O)N(Cc2ccc(Cl)cc2Oc2ccc(-c3cnc(CN(C)C)n3C)cc2)[C@@H](C)C(=O)N[C@@H](COC)C(=O)N(C)[C@@H](Cc2ccc(Cl)cc2)CC(=O)NC[C@H](C)N(C)C1=O . Reported IC50? 99.6

Look at this compound and give its reported IC50. COC[C@@H]1NC(=O)[C@H](C)N(Cc2ccc(Cl)cc2Oc2ccc(-c3cnc(CN(C)C)n3C)cc2)C(=O)C[C@@H](Cc2ccccc2)C(=O)N(C)[C@@H]2C[C@@H]2NC(=O)C[C@H](Cc2ccc(Cl)cc2)N(C)C1=O 9

Given COC[C@@H]1NC(=O)[C@H](C)N(Cc2c(F)cc(F)cc2Oc2ccc(-c3cnc(CN(C)C)n3C)cc2)C(=O)C[C@@H](Cc2ccccc2)C(=O)N(C)[C@H]2CCCC[C@@H]2NC(=O)C[C@H](Cc2ccc(Cl)cc2)N(C)C1=O , state its recorded IC50. 2.7

Could you tell me which IC50 is on file for COC[C@@H]1NC(=O)[C@H](C)N(Cc2ccc(Cl)cc2Oc2ccc(-n3cnc(CN4CC5(COC5)C4)c3C)cc2)C(=O)C[C@@H](Cc2ccccc2)C(=O)N(C)[C@@H](C)CNC(=O)C[C@H](Cc2ccc(Cl)cc2)N(C)C1=O ? 3.2

###

target: human PCSK9 (Homo sapiens, UniProt Q8NBP7); test: PCSK9 ligand binding TR-FRET assay (interference with binding of human PCSK9 to human LDLR); details: TR-FRET; human PCSK9 Alexa Fluor 647 / human LDLR extracellular domain-Europium Kryptate; read-out: PCSK9 FRET Assay IC50
Sequence (Q8NBP7 153-692): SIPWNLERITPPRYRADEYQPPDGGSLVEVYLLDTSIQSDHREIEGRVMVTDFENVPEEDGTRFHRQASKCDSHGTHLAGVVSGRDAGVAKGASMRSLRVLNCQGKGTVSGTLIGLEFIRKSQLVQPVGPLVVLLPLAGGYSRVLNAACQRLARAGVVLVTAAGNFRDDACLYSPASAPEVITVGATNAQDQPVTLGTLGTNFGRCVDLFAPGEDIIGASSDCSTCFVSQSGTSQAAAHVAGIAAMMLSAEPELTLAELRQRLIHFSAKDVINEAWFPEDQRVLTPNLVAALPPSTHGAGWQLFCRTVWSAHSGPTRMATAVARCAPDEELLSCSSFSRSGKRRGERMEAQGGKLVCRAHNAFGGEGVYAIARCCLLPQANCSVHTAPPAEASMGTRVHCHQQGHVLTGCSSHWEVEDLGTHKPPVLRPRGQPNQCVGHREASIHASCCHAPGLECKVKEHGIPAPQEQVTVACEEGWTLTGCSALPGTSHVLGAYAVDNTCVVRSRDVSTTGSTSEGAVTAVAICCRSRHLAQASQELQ
Sequence (Q8NBP7 31-152 partner limits assumed): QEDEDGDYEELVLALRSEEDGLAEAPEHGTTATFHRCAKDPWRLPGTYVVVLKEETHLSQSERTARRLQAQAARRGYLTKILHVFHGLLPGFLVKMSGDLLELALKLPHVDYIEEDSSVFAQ
Measured IC50 of individual entries
// units = nM; emit number, no label

Would you mind telling me what IC50 value was observed for COC[C@@H]1NC(=O)[C@H](C)N(Cc2ccc(Cl)cc2Oc2ccc(-n3cnc(CN4CCCC4)c3C)cc2)C(=O)C[C@@H](Cc2ccccc2)C(=O)N(C)[C@@H](C)CNC(=O)C[C@H](Cc2ccc(Cl)cc2)N(C)C1=O [Compound 259] ? 3.2

Suppose we examine the molecule CNc1ncc(-c2ccc(Oc3cc(Cl)ccc3CN3C(=O)C[C@@H](Cc4ccccc4)C(=O)N(C)[C@@H](C)CNC(=O)C[C@H](Cc4ccc(Cl)cc4)N(C)C(=O)[C@H](COC)NC(=O)[C@@H]3C)cc2)cn1 [Compound 86] ; what IC50 value has been reported? 20.5

Recorded IC50 for COC[C@@H]1NC(=O)[C@H](C)N(Cc2ccc(Cl)cc2Oc2ccc(-c3cnc(CN4CCCC4)n3C)cc2)C(=O)C[C@@H](Cc2ccccc2)C(=O)N(C)[C@H]2CCCC[C@@H]2NC(=O)C[C@H](Cc2ccc(Cl)cc2)N(C)C1=O [Compound 203] , please? 2

Bench note: what IC50 did COC[C@@H]1NC(=O)[C@H](C)N(Cc2ccc(Cl)cc2Oc2ccc(-c3cnc([C@@H](C)N4CCCC4)n3C)cc2)C(=O)C[C@@H](Cc2ccccc2)C(=O)N(C)[C@H]2CCCC[C@@H]2NC(=O)C[C@H](Cc2ccc(Cl)cc2)N(C)C1=O [Compound 152] show? 1.2

Request the reported IC50 associated with COC[C@@H]1NC(=O)[C@H](C)N(Cc2ccc(Cl)cc2Oc2ccc(-c3cnc(CN(C)C)n3C)cc2)C(=O)C[C@@H](Cc2ccccc2)C(=O)N(C)C(C)C(C)NC(=O)C[C@H](Cc2ccc(Cl)cc2)N(C)C1=O (some centres unmarked) [Compound 50] 41

For the molecule shown here, COC[C@@H]1NC(=O)[C@H](C)N(Cc2ccc(Cl)cc2Oc2ccc(-c3cnc4c(c3)CN(C(=O)[C@@H]3CCNC3)CC4)cc2)C(=O)C[C@@H](Cc2ccccc2)C(=O)N(C)[C@@H](C)CNC(=O)C[C@H](Cc2ccc(Cl)cc2)N(C)C1=O [Compound 212] , give the reported IC50. 5.4

Tell me the measured IC50 of COC[C@@H]1NC(=O)[C@H](C)N(Cc2ccc(C(F)(F)F)cc2Oc2ccc(-c3cnc(CN4CCCC4)n3C)cc2)C(=O)C[C@@H](Cc2ccccc2)C(=O)N(C)[C@@H](C)CNC(=O)C[C@H](Cc2ccc(Cl)cc2)N(C)C1=O [Compound 80] , please. 6.3

For the molecule shown here, COC[C@@H]1NC(=O)[C@H](C)N(Cc2ccc(Cl)cc2Oc2ccc(-n3cnc([C@@H](C)N(C)C)c3C)cc2)C(=O)C[C@@H](Cc2ccccc2)C(=O)N(C)[C@@H](C)[C@H](C)NC(=O)C[C@H](Cc2ccc(Cl)cc2)N(C)C1=O [Compound 270] , give the reported IC50. 2.7

###

Consider the following molecules and their measured Max % inhibition readings.
target: human PCSK9 (Homo sapiens); test: PCSK9 ligand binding TR-FRET assay (interference with binding of human PCSK9 to human LDLR); conditions: PCSK9 FRET assay, efficacy (Amax); 100% = 1 uM unlabeled human PCSK9, 0% = DMSO
Provide the reading as a plain figure in %.

CCN(CC)Cc1cn(-c2ccc(Oc3cc(Cl)ccc3CN3C(=O)C[C@@H](Cc4ccccc4)C(=O)N(C)[C@@H](C)CNC(=O)C[C@H](Cc4ccc(Cl)cc4)N(C)C(=O)[C@H](COC)NC(=O)[C@@H]3C)cc2)nn1 :: 48.04

Write down the reported Max % inhibition of COC[C@@H]1NC(=O)[C@H](C)N(Cc2ccc(Cl)cc2Oc2ccc(-n3cc(CN4CCCCC4)nn3)cc2)C(=O)C[C@@H](Cc2ccccc2)C(=O)N(C)[C@@H](C)CNC(=O)C[C@H](Cc2ccc(Cl)cc2)N(C)C1=O , test system: human PCSK9 (Homo sapiens). 51.35

Find Max % inhibition (human PCSK9 (Homo sapiens)) for the entry COC[C@@H]1NC(=O)[C@H](C)N(Cc2ccc(Cl)cc2Oc2ccc(-n3cnc(C(=O)NC(C)C)c3C)cc2)C(=O)C[C@@H](Cc2ccccc2)C(=O)N(C)[C@@H](C)CNC(=O)C[C@H](Cc2ccc(Cl)cc2)N(C)C1=O 84.60

Test system human PCSK9 (Homo sapiens); read-out Max % inhibition; what value for COC[C@@H]1NC(=O)[C@H](CCCN(C)C)N(Cc2ccc(Cl)cc2Oc2ccc(-c3cnc(CN4CCCC4)n3C)cc2)C(=O)C[C@@H](Cc2ccccc2)C(=O)N(C)[C@H]2CCCC[C@@H]2NC(=O)C[C@H](Cc2ccc(Cl)cc2)N(C)C1=O ? 90.24
